Molecular target: Ubiquitin carboxyl-terminal hydrolase 1 (Homo sapiens)
Test: Inhibitors of USP1/UAF1: Pilot qHTS (AID 504865); note: nearly all actives have a fitted effect of over 35% in size
Conditions: purified USP1/UAF1, Ub-rhodamine cleavage fluorescence; series mostly up to 114 µM
Inconclusive results are not listed. Active and inactive are the calls of the source. Calls come from the whole dose curve; as a rule, active = well fitted inhibition curve with a large enough effect; inconclusive = small, poorly fitted or top-dose-only effect; inactive = flat fitted curve, though single readings scatter.
Outcomes: active, inactive

{"COMPOUND": "CCN1C[C@]2(COC)[C@H](O)C[C@H](OC)[C@]34C1C([C@H](OC)[C@H]23)[C@]1(OC(C)=O)C2[C@@H](OC(=O)c3ccccc3)C(O)(C[C@H]24)[C@@H](OC)[C@@H]1O", "CLASSIFICATION": "inactive"}
{"COMPOUND": "c1ccc(C[C@@H](c2ccccc2)N2CCCCC2)cc1", "CLASSIFICATION": "inactive"}
{"COMPOUND": "N[C@@H](Cn1cc(I)c(=O)[nH]c1=O)C(=O)O", "CLASSIFICATION": "inactive"}
{"COMPOUND": "CC(C)(O)[C@@H]1[C@H]2OC(=O)[C@@H]1[C@]1(O)C[C@H]3O[C@]34C(=O)O[C@H]2[C@@]14C (tested in a mixture with another compound)", "CLASSIFICATION": "inactive"}
{"COMPOUND": "CCN1C[C@]2(COC(=O)c3ccccc3N3C(=O)C[C@H](C)C3=O)CC[C@H](OC)[C@@]34[C@@H]5C[C@H]6[C@H](OC)[C@H]5[C@](O)(C[C@@H]6OC)[C@@](O)([C@@H](OC)[C@@H]23)[C@@H]14", "CLASSIFICATION": "inactive"}
{"COMPOUND": "COc1cccc2c1C(=O)c1c(O)c3c(c(O)c1C2=O)C[C@@](O)(C(=O)CO)C[C@@H]3O[C@H]1C[C@H](N)[C@H](OC2CCCCO2)[C@H](C)O1 (stereo partly specified)", "CLASSIFICATION": "active"}
